Property: peptide-specific response, donor HH-N12-36, post COVID-19; scope: individual sequences
- System: pre-cultured PBMCs (NSP12-specific T cells)
- ASSAY_INFO: IFN-γ ELISpot with single 15-mer peptides after 11–13 days in vitro peptide-pool T-cell expansion; further: unit not given here
- Assay type: cell-based, human
- CONDITION_DETAILS: donor HH-N12-36; sample post COVID-19; single NSP12 15-mer peptides
Form field (numeric): enter value without unit.

Reference set, count: 2
QHEETIYNLLKDCPA [compound 17]: 0
MRNAGIVGVLTLDNQ [compound 40]: 0

-- ask peptide-specific response, donor HH-N12-36, post COVID-19 of LKYDFTEERLKLFDR [compound 55] on pre-cultured PBMCs (NSP12-specific T cells)?
-- reply 0

-- ask peptide-specific response, donor HH-N12-36, post COVID-19 of DFIQTTPGSGVPVVD [compound 45] on pre-cultured PBMCs (NSP12-specific T cells)?
-- reply 0

-- ask peptide-specific response, donor HH-N12-36, post COVID-19 of TEERLKLFDRYFKYW [compound 56] on pre-cultured PBMCs (NSP12-specific T cells)?
-- reply 0.022

-- ask peptide-specific response, donor HH-N12-36, post COVID-19 of SFLNRVCGVSAARLT [compound 2] on pre-cultured PBMCs (NSP12-specific T cells)?
-- reply 0

-- ask peptide-specific response, donor HH-N12-36, post COVID-19 of QFCDAMRNAGIVGVL [compound 39] on pre-cultured PBMCs (NSP12-specific T cells)?
-- reply 0

-- ask peptide-specific response, donor HH-N12-36, post COVID-19 of DQTYHPNCVNCLDDR [compound 59] on pre-cultured PBMCs (NSP12-specific T cells)?
-- reply 0
